Reference source for all entries: patent US11434205B2

// Minimal lethal dose collected for rats

>>> print(df.to_string())
                                   molecule  value_reported
0  CC(OC(=O)c1cncn1[C@H](C)c1ccccc1)C1CO1 (stereo partly drawn)       >17 mg/kg
1   CCC(CC)OC(=O)c1c(F)ncn1[C@H](C)c1ccccc1        >4 mg/kg
2  CC(=O)C(C)(C)OC(=O)c1c(F)ncn1[C@H](C)c1ccccc1       >10 mg/kg

Lab note: C/C=C/C1(OC(=O)c2cncn2[C@H](C)c2ccccc2)COC1 gave Minimal lethal dose of >9 mg/kg

Lab note: C=C=CC1(OC(=O)c2c(F)ncn2[C@H](C)c2ccccc2)CCC1 gave Minimal lethal dose of >1.5 mg/kg

Lab note: C[C@H](c1ccccc1)n1cncc1C(=O)OC1(C)CCC1=O (stereo partly drawn) gave Minimal lethal dose of >4 mg/kg

* * *

// Minimal lethal dose collected for rats

Some solved cases for reference:
In [3]: df
Out[3]:
                          chemical_smiles  value_reported
0  C[C@H](c1ccccc1)n1cnc(F)c1C(=O)OCC1CC1        >4 mg/kg
1     CCOC(=O)c1c(Cl)ncn1[C@H](C)c1ccccc1       >12 mg/kg

Lab note: C=C=CC1(SC(=O)c2cncn2[C@H](C)c2ccccc2)COC1 gave Minimal lethal dose of >8 mg/kg

* * *

# Tested on: secretion of cortisol, H295R cell line
# assay-name: cells
# Format: cell-based
# test-parameters: H295R; Table B3
recorded-endpoint: Cortisol as an indicator to determine the presence of inhibition
Enter a number only.

Some solved cases for reference:
In [3]: df
Out[3]:
                                   compound  value_reported
0  CC(OC(=O)c1cncn1[C@H](C)c1ccccc1)C1CO1 (some centres unmarked)               0
1   C[C@H](c1ccccc1)n1cncc1C(=O)OCC1(C)COC1               0
2  COC(=O)C1(OC(=O)c2cncn2[C@H](C)c2ccccc2)CC1 [CPMM, cyclopropyl methoxycarbonyl methylate, reference compound]               1
3  CCCC1(COC(=O)c2cncn2[C@H](C)c2ccccc2)COC1               0

Lab note: CCOC(=O)c1cncn1[C@H](C)c1ccccc1 [Etomidate, reference compound] gave Cortisol as an indicator to determine the presence of inhibition of 2

Lab note: C[C@H](c1ccccc1)n1cncc1C(=O)SCC1COC1 gave Cortisol as an indicator to determine the presence of inhibition of 0

Lab note: C[C@H](c1ccccc1)n1cncc1C(=O)O [Etomidate acid, etomidate acid, reference compound] gave Cortisol as an indicator to determine the presence of inhibition of 0

* * *

Catalogue of recovery time of the test animals' righting reflex readings, one per entry.
# Tested on: rats
# Format: in vivo, rat
# test-parameters: rats of the MAP/HR figures, 2×ED50, tail vein; same value in min
Just the number please, in min, no unit attached.

>>> df
                                   compound  result_unit  value_reported
0  CC#CC(C)OC(=O)c1c(F)ncn1[C@H](C)c1ccccc1 (stereo partly drawn)          min            3.33
1       C[C@H](c1ccccc1)n1cncc1C(=O)OCC1CC1          min            3.22

Lab note: C#CC1(COC(=O)c2cncn2[C@H](C)c2ccccc2)CCC1 gave recovery time of the test animals' righting reflex of 10.08

Lab note: CCC(C)(CC)OC(=O)c1c(F)ncn1[C@H](C)c1ccccc1 gave recovery time of the test animals' righting reflex of 1.33

Lab note: C[C@H](c1ccccc1)n1cnc(F)c1C(=O)OCC1CC1 gave recovery time of the test animals' righting reflex of 2.00

Lab note: CC#CC1(OC(=O)c2cncn2[C@H](C)c2ccccc2)COC1 gave recovery time of the test animals' righting reflex of 6.25

Lab note: C=CC1(OC(=O)c2cncn2[C@H](C)c2ccccc2)CCCCC1 gave recovery time of the test animals' righting reflex of 3.33

Lab note: CCCC(CCC)OC(=O)c1cncn1[C@H](C)c1ccccc1 gave recovery time of the test animals' righting reflex of 4.05

Lab note: C[C@H](c1ccccc1)n1cnc(F)c1C(=O)OC1COC1 gave recovery time of the test animals' righting reflex of 2.70

* * *

# System: rats
# assay-name: Pharmacological characteristics at equivalent doses (2×ED50) in rats
# test-parameters: 2×ED50, tail vein
# Protocol: Comparison of Pharmacological Characteristics of the Compounds at Equivalent Doses (2×ED50) in Rats Adult male Sprague-Dawley rats (250-300 g) were selected for the experiment (n=8). […] The drugs were administered at a dose twice their ED50 through the tail vein of rats in a volume of 0.6 mL and at a rate of 0.1 mL/s. In addition, the time of LORR was recorded as the onset time of anesthesia. […]
recorded-endpoint: Adverse reactions: Tongue stretching (incidence)

>>> print(df.to_string())
                                   compound  assayed_target            value_reported
0  CC#CC(C)OC(=O)c1cncn1[C@H](C)c1ccccc1 (some centres unmarked)            rats  Tongue stretching (2/8),
1       C[C@H](c1ccccc1)n1cncc1C(=O)OC1CCC1            rats  Tongue stretching (2/8),

* * *

// Minimal lethal dose collected for rats

Some solved cases for reference:
>>> df
                                   compound  assayed_target    recorded_endpoint  value_reported
0  CC#CC1(OC(=O)c2cncn2[C@H](C)c2ccccc2)CSC1            rats  Minimal lethal dose       >10 mg/kg
1  CC#CC1(OC(=O)c2cncn2[C@H](C)c2ccccc2)CCSC1 (stereo partly drawn)            rats  Minimal lethal dose        >5 mg/kg
2  C[C@H](c1ccccc1)n1c(Cl)nc(Cl)c1C(=O)OC1CSC1            rats  Minimal lethal dose       >10 mg/kg

Next, consider the following compound.
Record CC#CC1(OC(=O)c2c(F)ncn2[C@H](C)c2ccccc2)CSC1 ; system rats; Minimal lethal dose = >20 mg/kg

* * *

// Minimal lethal dose collected for rats

>>> df
                                   compound  value_reported
0      CCC(CC)OC(=O)c1cncn1[C@H](C)c1ccccc1        >1 mg/kg
1  CC#CC1(OC(=O)c2c(F)ncn2[C@H](C)c2ccccc2)COC1        >5 mg/kg
2  C=C=CC1(OC(=O)c2cncn2[C@H](C)c2ccccc2)CCC1        >6 mg/kg

Lab note: CSCCOC(=O)c1cncn1[C@H](C)c1ccccc1 gave Minimal lethal dose of >9 mg/kg

Lab note: C[C@H](c1ccccc1)n1cncc1C(=O)OC1(C2CO2)CCC1 (stereo partly drawn) gave Minimal lethal dose of >3 mg/kg

Lab note: CC#CC(C)OC(=O)c1c(F)ncn1[C@H](C)c1ccccc1 (stereo partly drawn) gave Minimal lethal dose of >4 mg/kg

* * *

# System: rats
# assay-name: Pharmacological characteristics at equivalent doses (2×ED50) in rats
# test-parameters: 2×ED50, tail vein, DMSO solution (DMSO alone 10/10)
# Procedure: Comparison of Pharmacological Characteristics of the Compounds at Equivalent Doses (2×ED50) in Rats Adult male Sprague-Dawley rats (250-300 g) were selected for the experiment (n=8). […] The drugs were administered at a dose twice their ED50 through the tail vein of rats in a volume of 0.6 mL and at a rate of 0.1 mL/s. In addition, the time of LORR was recorded as the onset time of anesthesia. […]
recorded-endpoint: Adverse reactions: Red urine (incidence)

>>> df
                                   compound   value_reported
0  CCC(=O)C1(OC(=O)c2cncn2[C@H](C)c2ccccc2)CC1 [Compound C16]  Red urine (8/8)
1  C=C=CC1(OC(=O)c2cncn2[C@H](C)c2ccccc2)COC1 [Compound D21]  Red urine (8/8)
2  C=CC1(OC(=O)c2cncn2[C@H](C)c2ccccc2)COC1 [Compound D7]  Red urine (8/8)
3  C[C@H](c1ccccc1)n1cncc1C(=O)OCC1CC(F)(F)C1 [Compound A12]            (8/8)

* * *

# Tested on: secretion of cortisol, H295R cell line
# assay-name: cells
# Format: cell-based
# test-parameters: H295R; Table A3
Catalogue of Cortisol as an indicator to determine the presence of inhibition readings, one per entry.
Enter a number only.

Some solved cases for reference:
                                   compound                          assayed_target  value_reported
0  COCC1(COC(=O)c2cncn2[C@H](C)c2ccccc2)CCC1  secretion of cortisol, H295R cell line               0
1     C[C@H](c1ccccc1)n1cncc1C(=O)OCCC1CCC1  secretion of cortisol, H295R cell line               0
2  C[C@H](c1ccccc1)n1cncc1C(=O)OCC1(C2CO2)CCC1 (stereo partly drawn)  secretion of cortisol, H295R cell line               0
3  C[C@H](c1ccccc1)n1cncc1C(=O)OC1(C2CO2)CCC1 (stereo partly drawn)  secretion of cortisol, H295R cell line               0
4       C[C@H](c1ccccc1)n1cncc1C(=O)OC1CCC1  secretion of cortisol, H295R cell line               0

Next, consider the following compound.
Lab note: C[C@H](c1ccccc1)n1cncc1C(=O)OC1(C)CCC1=O (stereo partly drawn) gave Cortisol as an indicator to determine the presence of inhibition of 0
